Target: Human AhR (Homo sapiens, UniProt P35869)
Construct: host or cells: U87 glioblastoma cells, stably transfected with DRE-driven firefly luciferase and constitutive renilla reporter constructs
Sequence (P35869 11-848): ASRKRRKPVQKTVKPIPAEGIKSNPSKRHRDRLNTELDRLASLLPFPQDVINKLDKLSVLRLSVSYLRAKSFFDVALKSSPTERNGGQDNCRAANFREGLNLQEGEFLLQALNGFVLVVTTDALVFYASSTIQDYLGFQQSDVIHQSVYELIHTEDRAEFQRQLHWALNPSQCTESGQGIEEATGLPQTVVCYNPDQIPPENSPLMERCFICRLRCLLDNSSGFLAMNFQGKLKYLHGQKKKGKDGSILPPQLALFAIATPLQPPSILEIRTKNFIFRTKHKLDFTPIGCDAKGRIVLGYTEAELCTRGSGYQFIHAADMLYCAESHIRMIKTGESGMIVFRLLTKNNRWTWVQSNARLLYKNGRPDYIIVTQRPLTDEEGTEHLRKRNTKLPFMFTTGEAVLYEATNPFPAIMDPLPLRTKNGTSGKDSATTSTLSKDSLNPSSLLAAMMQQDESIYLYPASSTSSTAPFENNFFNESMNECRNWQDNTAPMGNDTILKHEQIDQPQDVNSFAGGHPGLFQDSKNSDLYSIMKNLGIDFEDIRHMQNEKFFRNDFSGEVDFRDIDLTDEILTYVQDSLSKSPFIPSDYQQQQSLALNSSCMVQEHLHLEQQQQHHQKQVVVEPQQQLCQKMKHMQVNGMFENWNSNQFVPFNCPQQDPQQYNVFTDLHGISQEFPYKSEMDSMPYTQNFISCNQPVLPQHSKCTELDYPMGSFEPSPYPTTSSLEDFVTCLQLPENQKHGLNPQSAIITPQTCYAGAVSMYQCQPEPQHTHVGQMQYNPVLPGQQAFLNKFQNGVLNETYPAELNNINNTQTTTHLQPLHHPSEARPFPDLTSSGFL
Experiment: Transactivation assay in human cell line (in vitro assay 1: antagonism)
Format: cell-based
Settings: U87 glioblastoma cells, AHR inducible (DRE) firefly luciferase reporter, 150 μM kynurenic acid, 20 hours
Procedure: Transactivation Assay in Human Cell Line (In Vitro Assay 1) Transactivation assay was carried out in U87 glioblastoma cells (ATCC) endogenously expressing AHR. […] Firefly luciferase and Renilla activity was determined by the DualGlo Luciferase Assay System (Promega, #2920). […]
parameter: log10 IC50 (log10 of the value in nM)

>  <compound>
Cn1cc(-c2nc(C(=O)NC(CO)Cc3cccnc3)cc(-c3ccc(OC(F)(F)F)cc3)n2)cn1 (stereo not shown) [Example 93]

>  <system_under_test>
Human AhR (Homo sapiens, UniProt P35869)

>  <log10 IC50>
1.53

$$$$
>  <compound>
Cn1cc(-c2nc(C(=O)N[C@@H]3CC[C@H]3O)cc(-c3ccc(OC(F)(F)F)cc3)n2)cn1 (relative stereo) [Example 86]

>  <system_under_test>
Human AhR (Homo sapiens, UniProt P35869)

>  <log10 IC50>
0.76

$$$$
>  <compound>
Cc1ccc(-c2nc(C(=O)NCC(C)(C)O)cc(-c3ccc(Cl)cc3)n2)cn1 [Example 60]

>  <system_under_test>
Human AhR (Homo sapiens, UniProt P35869)

>  <log10 IC50>
1.81

$$$$
>  <compound>
Cc1noc(C)c1-c1nc(C(=O)NCC(C)(C)O)cc(-c2ccc(Cl)cc2)n1 [Example 56]

>  <system_under_test>
Human AhR (Homo sapiens, UniProt P35869)

>  <log10 IC50>
2.98

$$$$
>  <compound>
CC(C)(O)CNC(=O)c1cc(-c2ccc(Cl)cc2)nc(-c2cncnc2)n1 [Example 55]

>  <system_under_test>
Human AhR (Homo sapiens, UniProt P35869)

>  <log10 IC50>
1.01

$$$$
>  <compound>
Cn1cc(-c2nc(C(=O)NCC(C)(C)O)cc(-c3ccc(Cl)cc3)n2)cn1 [Example 13]

>  <system_under_test>
Human AhR (Homo sapiens, UniProt P35869)

>  <log10 IC50>
1.16

$$$$
>  <compound>
C[C@@H](CO)NC(=O)c1cc(-c2ccc(OC(F)(F)F)cc2)nc(-c2ccc(C#N)nc2)n1 [Example 38]

>  <system_under_test>
Human AhR (Homo sapiens, UniProt P35869)

>  <log10 IC50>
3.65

$$$$
>  <compound>
COc1ccc(-c2nc(C(=O)N[C@@H](C)CO)cc(-c3ccc(Cl)cc3)n2)cn1 [Example 69]

>  <system_under_test>
Human AhR (Homo sapiens, UniProt P35869)

>  <log10 IC50>
2.53

$$$$
>  <compound>
CC(C)(O)CNC(=O)c1cc(-c2ccc(Cl)cc2)nc(-c2cnn(C3CC3)c2)n1 [Example 68]

>  <system_under_test>
Human AhR (Homo sapiens, UniProt P35869)

>  <log10 IC50>
3.86

$$$$
>  <compound>
Cn1cc(-c2nc(C(=O)N[C@@H]3CS(=O)(=O)C[C@H]3O)cc(-c3ccc(OC(F)(F)F)cc3)n2)cn1 (relative stereo) [Example 100]

>  <system_under_test>
Human AhR (Homo sapiens, UniProt P35869)

>  <log10 IC50>
1.00

$$$$
>  <compound>
Cc1n[nH]cc1-c1nc(C(=O)NCC(C)(C)O)cc(-c2ccc(Cl)cc2)n1 [Example 65]

>  <system_under_test>
Human AhR (Homo sapiens, UniProt P35869)

>  <log10 IC50>
2.55

$$$$
>  <compound>
COc1ccc(-c2nc(C(=O)NCC(C)(C)O)cc(-c3ccc(Cl)cc3)n2)cn1 [Example 46]

>  <system_under_test>
Human AhR (Homo sapiens, UniProt P35869)

>  <log10 IC50>
2.63

$$$$
>  <compound>
Cn1cc(-c2nc(C(=O)NC(CO)C3CCC3)cc(-c3ccc(OC(F)(F)F)cc3)n2)cn1 (stereo not shown) [Example 94]

>  <system_under_test>
Human AhR (Homo sapiens, UniProt P35869)

>  <log10 IC50>
0.74

$$$$

Origin of values: patent US11304946B2
